Values compiled from patent US20220282217A1.

tgt: HLA-A02.01 (Homo sapiens, UniProt P04439, D140Y/D185E/D98H/E176V/E277Q/G131W/G231S/I119V/I121R/I166T/I218V/L300P/L318F/N151K/N90K/P208A/P217A/Q86G/Q94H/R138H/R169H/T345S)
assay details: Class I MHC peptide binding affinity (displacement of radiolabeled reference peptide)
study conditions: EGFR T790M peptides; HLA allele A02.01; read-out: Affinity
pKd: −log10 of the molar value.
result type: pKd

[
  {
    "compound structure": "CC[C@H](C)[C@H](NC(=O)[C@@H](N)CC(C)C)C(=O)N[C@@H](CCSC)C(=O)N[C@@H](CCC(N)=O)C(=O)N[C@@H](CC(C)C)C(=O)N[C@@H](CCSC)C(=O)N1CCC[C@H]1C(=O)N[C@@H](Cc1ccccc1)C(=O)NCC(=O)N[C@@H](CS)C(=O)O",
    "value observed": 6.88
  },
  {
    "compound structure": "CSCC[C@H](NC(=O)[C@H](CC(C)C)NC(=O)[C@H](CCC(N)=O)NC(=O)[C@@H](N)CCSC)C(=O)N1CCC[C@H]1C(=O)N[C@@H](Cc1ccccc1)C(=O)NCC(=O)N[C@@H](CS)C(=O)N[C@@H](CC(C)C)C(=O)O",
    "value observed": 6.93
  },
  {
    "compound structure": "CC[C@H](C)[C@H](NC(=O)[C@H](CC(C)C)NC(=O)[C@@H](N)CCC(N)=O)C(=O)N[C@@H](CCSC)C(=O)N[C@@H](CCC(N)=O)C(=O)N[C@@H](CC(C)C)C(=O)N[C@@H](CCSC)C(=O)N1CCC[C@H]1C(=O)N[C@@H](Cc1ccccc1)C(=O)O",
    "value observed": 6.71
  },
  {
    "compound structure": "CC[C@H](C)[C@H](NC(=O)[C@H](CC(C)C)NC(=O)[C@H](CCC(N)=O)NC(=O)[C@@H](N)C(C)C)C(=O)N[C@@H](CCSC)C(=O)N[C@@H](CCC(N)=O)C(=O)N[C@@H](CC(C)C)C(=O)N[C@@H](CCSC)C(=O)N1CCC[C@H]1C(=O)N[C@@H](Cc1ccccc1)C(=O)O",
    "value observed": 5.31
  }
]
